RUN_DESCRIPTION: Pharmacokinetics in rats, oral versus intravenous administration
Assay type: in vivo
MEASUREMENT_SETUP: OS (oral), 10 mg/Kg
Procedure: The samples are analysed by HPLC-MS to determine the content of 6-(1H-imidazol-1-yl)-2-phenylquinazoline, using diphenylhydramine hydrochloride as internal standard. The pharmacokinetic parameters measured are summarized hereinbelow: it is noted that, despite the fact that the polymorph under consideration is of low solubility, the bioavailability (F %) is entirely acceptable. […]
PARAMETER_MEASURED: CL (mL/min/kg)
One number for each entry, in mL/min/kg.

Use the examples below as a reference point.
COMPOUND	CL, mL/min/kg
O=C(O)CCC(=O)O.c1ccc(-c2ncc3cc(-n4ccnc4)ccc3n2)cc1 [succinate form A]	19
O=C(O)/C=C\C(=O)O.c1ccc(-c2ncc3cc(-n4ccnc4)ccc3n2)cc1 [maleate form A]	16
c1ccc(-c2ncc3cc(-n4ccnc4)ccc3n2)cc1 [polymorph A, 6-(1H-imidazol-1-yl)-2-phenylquinazoline]	22

I am curious: what CL value has been reported for O=C(O)C(O)C(O)C(=O)O.c1ccc(-c2ncc3cc(-n4ccnc4)ccc3n2)cc1 [tartrate form A] ? 17

---

RUN_DESCRIPTION: physchem
MEASUREMENT_SETUP: 37 °C, pH 2, aqueous buffer, thermodynamic from solid
PARAMETER_MEASURED: solubility at 24 h (µg/mL)
Numbers only, in µg/mL.

Look up solubility at 24 h: c1ccc(-c2ncc3cc(-n4ccnc4)ccc3n2)cc1 1800

---

RUN_DESCRIPTION: Solubility in aqueous solution of NaCl 0.9% (UV absorbance at 260 nm)
Format: physicochemical
MEASUREMENT_SETUP: aqueous solution of NaCl 0.9%, 37 °C, saline or isotonic, thermodynamic from solid, aqueous NaCl 0.9%, stirred 500 rpm, 24 hours at 37° C.
Structures can show the parent of a compound that is named as a salt.
What solubility at 24 h was measured for each of the following?
One number for each entry, in µg/mL.

Below: 3 molecules and their reported solubility at 24 h.
MOLECULE	solubility at 24 h [µg/mL]
O=C(O)/C=C/C(=O)O.c1ccc(-c2ncc3cc(-n4ccnc4)ccc3n2)cc1 [fumarate form A]	1200
c1ccc(-c2ncc3cc(-n4ccnc4)ccc3n2)cc1 [dihydrochloride monohydrate form A]	138000
O=C(O)/C=C\C(=O)O.c1ccc(-c2ncc3cc(-n4ccnc4)ccc3n2)cc1 [maleate form A]	7900

Quick one: give me solubility at 24 h for each item below, same order please.
1. O=C(O)CCC(=O)O.c1ccc(-c2ncc3cc(-n4ccnc4)ccc3n2)cc1 [succinate form A]
2. O=P(O)(O)O.c1ccc(-c2ncc3cc(-n4ccnc4)ccc3n2)cc1 [phosphate, form A]
3. O=C(O)C(O)C(O)C(=O)O.c1ccc(-c2ncc3cc(-n4ccnc4)ccc3n2)cc1 [tartrate form A]

600
6200
2500

---

Please provide measured half-life for the entries that follow.
RUN_DESCRIPTION: Pharmacokinetics in rats, oral versus intravenous administration
Type: in vivo
MEASUREMENT_SETUP: rat, blood, iv, 5 mg/kg, IV, 5 mg/kg, read-out: T½
Answers are plain numbers, in min.

COMPOUND	half-life, min
c1ccc(-c2ncc3cc(-n4ccnc4)ccc3n2)cc1	42.1
O=C(O)CCC(=O)O.c1ccc(-c2ncc3cc(-n4ccnc4)ccc3n2)cc1 [succinate form A]	48.9
O=C(O)C(O)C(O)C(=O)O.c1ccc(-c2ncc3cc(-n4ccnc4)ccc3n2)cc1 [tartrate form A]	47.7

Now for another entry.
# get_value(readout='half-life', item= O=C(O)/C=C\C(=O)O.c1ccc(-c2ncc3cc(-n4ccnc4)ccc3n2)cc1 [maleate form A] ) 45.6
